All figures here come from the supplement of paper PMC9170038.

# Tested on: MS2 coat protein
# Assay Text: apparent KD of MS2 coat protein; designed switch direction (-1 OFF switch, 1 ON switch): -1; higher = weaker reporter binding
# Measurement Setup: input ligand: microRNA oligo, concentration not stated
Respond with Criterion met for apparent KD of MS2 coat protein values of 30 nM and above, Criterion not met for values below.

{"Biosequence": "GCGACGCUACAUGAGGAUCACCCAUGUCCUCACAUGAGAUGGUAGGAUAUUAUAUAUACAUUGUGUGAGAAGGAUCAUCGCCCA [Eternabot solution 2] (Eterna round: R96, puzzle: Exclusion NG 3)", "Category Label": "Criterion met"}
{"Biosequence": "UUUAAUUUUUUUUUUUUACAAGCUUUUUGCUCGUCUUAUACAUGAGGAUCACCCAUGUGGGUAAGGGAUAAAUUAUC [JMF 37] (Eterna round: R96, puzzle: Sensor v3, turn-off variant 2)", "Category Label": "Criterion met"}
{"Biosequence": "UAUAUAUAGUAAGGAUAUGUAUUUAUUCUAUAAACAGAAGGUACUGACAUGAGGAUCACCCAUGUUUUAGUGUGGGCAUGUAGA [JMF's solution 18] (Eterna round: R96, puzzle: Exclusion NG 1)", "Category Label": "Criterion met"}
{"Biosequence": "UCACGGGACUAAGGAUAUACAUGAUCCAUUUUUGUAGAAGGUAGAAUGUUAGAUCAUAAACUAAACAUGAGGAUCACCCAUGUU [JR_ExcNG1_Sub089] (Eterna round: R96, puzzle: Exclusion NG 1)", "Category Label": "Criterion not met"}
{"Biosequence": "CUGUUUUUCGCAGGAUAUGCUCCUCCAUUAUUUGCAGAAGGGCGUUGAACAUGAGGAUCACCCAUGUAUGGAAAUGACUAUUGC [JR_ExcNG1_Sub068] (Eterna round: R96, puzzle: Exclusion NG 1)", "Category Label": "Criterion not met"}
{"Biosequence": "GCGGACUAGUUCGUGAGAACUGAGACAUGAGGAUCACCCAUGUAGGAUAUCGAUUCGAAACGAAUCGAGAAGGGCAUAGUCCGC [JL denovo 9] (Eterna round: R96, puzzle: Exclusion NG 3)", "Category Label": "Criterion not met"}
{"Biosequence": "CUGAACCCGGUAGGAUAUAUUGUGGGCAAGCAUGGAACAACAUGAGGAUCACCCAUGUAAUUUAGGUAGAAGGGCCAAAAGAUU [Excl-NG2-LRO08] (Eterna round: R96, puzzle: Exclusion NG 2)", "Category Label": "Criterion met"}
{"Biosequence": "AGGUGUUUCGUAGGAUAUGAGGAUCACCCAUAGAAGGAUAUCGAAAGAGAAGGUCUGAGGAUUACCCAGAAGGACGGGACGUCA [pwkr exNG2 2xF5 2xFMN.10] (Eterna round: R96, puzzle: Exclusion NG 2)", "Category Label": "Criterion met"}
{"Biosequence": "UGUCAGAUGGUAGGAUAUCCAUAUUGAGUGACCCUUUCAUAACAUGAGGAUCACCCAUGUCGGUGGGAGAAGGGCCGUAUGGUG [salish99_ExNG02_R04_028] (Eterna round: R96, puzzle: Exclusion NG 2)", "Category Label": "Criterion not met"}
